Biological target: human brain-derived dopamine D4 receptor (Homo sapiens, UniProt P21917)
Construct: expressed in transfected cells; host or cells: CHO (CHO-K1) or HEK293 cells
Sequence (P21917 1-419): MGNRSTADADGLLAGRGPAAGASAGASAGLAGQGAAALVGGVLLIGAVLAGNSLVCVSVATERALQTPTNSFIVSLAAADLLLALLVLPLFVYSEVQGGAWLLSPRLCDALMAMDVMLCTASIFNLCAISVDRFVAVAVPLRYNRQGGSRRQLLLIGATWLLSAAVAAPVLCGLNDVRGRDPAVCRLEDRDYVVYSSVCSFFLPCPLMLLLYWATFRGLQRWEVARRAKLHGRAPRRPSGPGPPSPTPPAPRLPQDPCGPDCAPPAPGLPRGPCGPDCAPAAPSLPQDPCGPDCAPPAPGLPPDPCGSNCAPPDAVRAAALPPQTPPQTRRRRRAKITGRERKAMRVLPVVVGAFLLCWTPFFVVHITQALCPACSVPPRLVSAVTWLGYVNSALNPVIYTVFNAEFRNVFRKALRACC
Test: Agonistic activity in G protein dependent pathway of dopamine D4 receptor (aequorin intracellular calcium luminescence, FDSS)
Type: cell-based
Details: read-out: Maximal activity on D4 receptor (%)
endpoint: Emax

Cc1cc(CN2CCn3nc(-c4ncccc4C)cc3C2)cnc1Cl :: 66%
Cc1cccnc1-c1cc2n(n1)CCN(Cc1ccc(F)c(C)n1)C2 :: 54%
Fc1ccc2[nH]nc(CN3CCn4nc(-c5ccccn5)cc4C3)c2c1 :: 60%

Using the record for Cc1cnc(N)c(CN2CCn3nc(-c4ncccc4C)cc3C2)c1 , report its Emax.
53%

# repeat for Cc1ccc(CN2CCn3nc(-c4ncccc4C)c(Cl)c3C2)nc1
94%

# repeat for Cc1cccnc1-c1cc2n(n1)CCN(Cc1n[nH]c3ccccc13)C2
87%
